- METHOD SUMMARY: solvent given as SMILES
- EXPERIMENTAL PARAMETERS: in CO
Reported fluorescence lifetime values follow for various compounds
Give your result in ns as a bare value.

[[record]]
compound = "CCC1(CC)c2cc(-c3ccc(-c4ccc5c(c4)C(CC)(CC)c4cc(C(C)(C)C)ccc4-5)cc3)ccc2-c2ccc(C(C)(C)C)cc21"
numeric_readout = 0.8


The compound identified as `CC1(C)Nc2cc(Cl)ccc2-c2[nH]c3ccccc3c(=O)c21` registered its fluorescence lifetime at 8.67

The compound identified as `CCC1=C(C)C2=C(C)c3cc(I)c(I)n3[B-](F)(F)[N+]2=C1C` registered its fluorescence lifetime at 0.882

The compound identified as `O=C1CCCC2=C1CC1=C(CCCC1=O)N2NC(=O)c1ccc(O)cc1` registered its fluorescence lifetime at 4.8

---

- METHOD SUMMARY: solvent given as SMILES
- EXPERIMENTAL PARAMETERS: in Cc1ccccc1
RECORDED ENDPOINT: fluorescence lifetime (ns)
Give your result in ns as a bare value.

[[record]]
compound = "CC1(C)c2ccccc2N(c2ccc(C(=CC#N)c3ccc(N4c5ccccc5C(C)(C)c5ccccc54)cc3)cc2)c2ccccc21"
recorded_endpoint = "fluorescence lifetime"
numeric_readout = 5.09

[[record]]
compound = "CC(C)(C)c1ccc(N2c3ccc(C(C)(C)C)cc3B3c4cc(C(C)(C)C)ccc4N(c4ccc(C(C)(C)C)cc4)c4cc(-n5c6ccc(C(C)(C)C)cc6c6cc(C(C)(C)C)ccc65)cc2c43)cc1"
recorded_endpoint = "fluorescence lifetime"
numeric_readout = 6.02

[[record]]
compound = "Cc1ccc2c(c1)c1cc(C)ccc1n2-c1cccc(-n2c3ccc(C)cc3c3cc(C)ccc32)c1C#N"
recorded_endpoint = "fluorescence lifetime"
numeric_readout = 5.5

[[record]]
compound = "COC(=O)/C(C#N)=c1\\s/c(=c2/s/c(=C(/C#N)C(=O)OC)c3cc(-c4ccc(F)cc4)sc23)c2sc(-c3ccc(F)cc3)cc12"
recorded_endpoint = "fluorescence lifetime"
numeric_readout = 2.9

[[record]]
compound = "C(#Cc1cc2ccc3cccc4ccc(c1)c2c34)c1ccccc1"
recorded_endpoint = "fluorescence lifetime"
numeric_readout = 71


Please find the next compound below.
The compound identified as `F[B-]1(F)OC(c2ccccc2)=Cc2cc(Cl)nc[n+]21` registered its fluorescence lifetime at 0.19

---

- METHOD SUMMARY: solvent given as SMILES
- EXPERIMENTAL PARAMETERS: in CO
Threshold 1 ns: fluorescence lifetime strictly smaller gives class 1, otherwise class 0.

Consider the following illustrative entries.
[[record]]
compound = "N#CC(C#N)=C(/C=C/c1cc2c3c(c1)CCCN3CCC2)c1ccc2c3c(cccc13)CC2"
discrete_label = "class 0"

[[record]]
compound = "Oc1cc2ccc3cc(O)cc4ccc(c1)c2c34"
discrete_label = "class 0"


Consider the compound NS(=O)(=O)c1ccc(N2N=C(c3ccc(O)cc3)CC2c2ccc(F)cc2)cc1 (centres undefined) . Is its fluorescence lifetime strictly less than 1 ns?
class 0

Consider the compound COC(=O)C(NC(=O)OC(C)(C)C)c1ccc2oc(-c3cc(OC)c(OC)c(OC)c3)nc2c1 (centres undefined) . Is its fluorescence lifetime strictly less than 1 ns?
class 0

Consider the compound `CC1(C)C(/C=C/C2=C(Cl)C(=C/C=C3/N(CCCCS(=O)(=O)[O-])c4ccc5ccccc5c4C3(C)C)/CCC2)=[N+](CCCCS(=O)(=O)[O-])c2ccc3ccccc3c21` . Is its fluorescence lifetime strictly less than 1 ns?
class 1

Consider the compound `CC(C)(C)c1ccc2c(c1)c1cc(C(C)(C)C)ccc1n2-c1ccc(C#Cc2cccc(C#Cc3ccc(-n4c5ccc(C(C)(C)C)cc5c5cc(C(C)(C)C)ccc54)cc3)c2)cc1` . Is its fluorescence lifetime strictly less than 1 ns?
class 0

Consider the compound `CC(=O)c1ccc2ccc3cccc4ccc1c2c34` . Is its fluorescence lifetime strictly less than 1 ns?
class 1

Consider the compound `COc1cc(OC)cc(-c2ccc(-c3ccc(C#N)s3)s2)c1` . Is its fluorescence lifetime strictly less than 1 ns?
class 1

Consider the compound `CCC1(CC)c2cc(-c3ccc4c(c3)C(CC)(CC)c3cc(C(C)(C)C)ccc3-4)ccc2-c2ccc(-c3ccc4c(c3)C(CC)(CC)c3cc(C(C)(C)C)ccc3-4)cc21` . Is its fluorescence lifetime strictly less than 1 ns?
class 1

Consider the compound `COc1c2ccccc2c(OC)c2c1c1cc(C)ccc1n2C` . Is its fluorescence lifetime strictly less than 1 ns?
class 0

Consider the compound `Clc1ccc(/C=C/c2nc3ccccc3o2)cc1` . Is its fluorescence lifetime strictly less than 1 ns?
class 1

Consider the compound `CN(C)CCCN1c2ccccc2Sc2ccc(C(F)(F)F)cc21` . Is its fluorescence lifetime strictly less than 1 ns?
class 0

Consider the compound `O=C1c2ccc3c4ccc5c6c(ccc(c7ccc(c2c37)C(=O)N1c1ccncc1)c64)C(=O)N(c1ccncc1)C5=O` . Is its fluorescence lifetime strictly less than 1 ns?
class 1

Consider the compound `Cc1ccc(C(=O)NN2C3=C(CC4=C2CCCC4=O)C(=O)CCC3)cc1` . Is its fluorescence lifetime strictly less than 1 ns?
class 0

Consider the compound COC(=O)C(NC(=O)OC(C)(C)C)c1ccc2oc(-c3ccc(N(C)C)cc3OC)nc2c1 (centres undefined) . Is its fluorescence lifetime strictly less than 1 ns?
class 0

Consider the compound `N#Cc1ccc(/C=C2\OC(=O)c3cc(N)ccc32)cc1` . Is its fluorescence lifetime strictly less than 1 ns?
class 0

Consider the compound `Cc1ccccc1C1=C2C=c3c(oc4ccccc34)=[N+]2[B-](F)(F)n2c1cc1c3ccccc3oc12` . Is its fluorescence lifetime strictly less than 1 ns?
class 0

Consider the compound `CCCCCC(=O)c1c2c(c(C(=O)CCCCC)c3c1OC1(CCCC1)O3)OC1(CCCC1)O2` . Is its fluorescence lifetime strictly less than 1 ns?
class 0

---

- METHOD SUMMARY: solvent given as SMILES
- EXPERIMENTAL PARAMETERS: in Cc1ccccc1
Reported fluorescence lifetime values follow for various compounds
Give your result in ns as a bare value.

Completed entries (count: 4):
[[record]]
compound = "Cc1cc(C)c(B(c2ccccc2N(c2ccccc2)c2ccccc2)c2c(C)cc(C)cc2C)c(C)c1"
numeric_readout = 27

[[record]]
compound = "C(=C\\c1ccc(/C=C/c2ccc(N(c3ccccc3)c3ccccc3)cc2)c2nsnc12)/c1ccc(N(c2ccccc2)c2ccccc2)cc1"
numeric_readout = 4.29

[[record]]
compound = "CC(C)(C)c1ccc2c(c1)c1cc3c4cc(C(C)(C)C)ccc4c4c5c6ccc(C(C)(C)C)cc6c6cc7c8cc(C(C)(C)C)ccc8c8c2c1c(c34)c(c78)c65"
numeric_readout = 0.606

[[record]]
compound = "CCCN1C(=O)c2c3c(c4c(c2C1=O)CCc1cc(-c2ccc(N(C)C)cc2)c(OC)cc1-4)-c1cc(OC)c(-c2ccc(N(C)C)cc2)cc1CC3"
numeric_readout = 5.64


The compound identified as `N#Cc1cc(N2c3ccccc3Oc3ccccc32)cc(N2c3ccccc3Oc3ccccc32)c1` registered its fluorescence lifetime at 26.1

---

- METHOD SUMMARY: solvent given as SMILES
- EXPERIMENTAL PARAMETERS: in ClC(Cl)Cl
RECORDED ENDPOINT: log10(fluorescence lifetime) (log10 of the value in ns)
The figures below represent log10 of fluorescence lifetime, where fluorescence lifetime is stated in ns.

Completed entries (count: 8):
[[record]]
compound = "CN(C)c1ccc(C2=Cc3cccc[n+]3[B-](F)(F)O2)cc1"
numeric_readout = 0.43

[[record]]
compound = "CN(C)c1ccc(C2=Cc3c4ccccc4c4ccccc4[n+]3[B-](F)(F)O2)cc1"
numeric_readout = 0.41

[[record]]
compound = "CCOc1cc2c(cc1/C=C/C1=CC(=C(C#N)C#N)CC(C)(C)C1)c1ccccc1n2CC"
numeric_readout = 0.64

[[record]]
compound = "CC1=CC(C)=[N+]2C1=C(c1ccc(I)cc1)c1c(C)cc(C)n1[B-]2(Oc1ccc(Cl)cc1)Oc1ccc(Cl)cc1"
numeric_readout = -0.43

[[record]]
compound = "CC[n+]1c(C=C2C(=O)C(C=C3Sc4cc(Cl)ccc4N3C)=C2[O-])[se]c2ccccc21"
numeric_readout = 0.64

[[record]]
compound = "F[B-]1(F)OC(c2cccc(Br)c2)=Cc2c3ccccc3c3ccccc3[n+]21"
numeric_readout = -0.50

[[record]]
compound = "Cc1ccc(/C2=c3\\cc/c(o3)=C(\\c3ccc(C)cc3)c3ccc([nH]3)-c3ccc4n3[B-](F)(F)[N+]3=C(C=CC3=C4c3ccco3)c3ccc2[nH]3)cc1"
numeric_readout = 0.61

[[record]]
compound = "CCCCCCOc1ccc(C#Cc2ccc(C#CC#Cc3ccc(C#Cc4ccc(OCCCCCC)c(OCCCCCC)c4)c4nsnc34)c3nsnc23)cc1OCCCCCC"
numeric_readout = 0.41


The compound identified as `Cc1ccc(C2=Cc3c4ccccc4cc[n+]3[B-](F)(F)O2)cc1` registered its log10(fluorescence lifetime) at -0.42

The compound identified as `CCCCCCCCN1C(=O)c2ccc3c4c(-c5ccc(-n6c7ccccc7c7ccccc76)cc5)cc5c6c(ccc(c7c(-c8ccc(-n9c%10ccccc%10c%10ccccc%109)cc8)cc(c2c37)C1=O)c64)C(=O)N(CCCCCCCC)C5=O` registered its log10(fluorescence lifetime) at 0.53

The compound identified as `CC1=[N+]2C(=C(c3ccccc3)c3ccc(C)n3[B-]2(F)F)C=C1` registered its log10(fluorescence lifetime) at 0.42
